Test system: DMS 273 small cell lung
Method Summary: NCI tumour cell line growth inhibition, 48 h
Measurement Label: TGI

Structure As Smiles	Tgt	Observed
CC[C@@]1(O)C(=O)OCc2c1cc1n(c2=O)Cc2cc3c([N+](=O)[O-])c(O)ccc3nc2-1	DMS 273 small cell lung	2.02 µM
O=C(/C=C/c1ccc[nH]1)c1ccccc1	DMS 273 small cell lung	> 100 µM
COc1cc(C(=O)O)cc2c1[nH]c1ccccc12	DMS 273 small cell lung	> 25 µM

---

Test system: OVCAR-4 ovarian
Method Summary: NCI tumour cell line growth inhibition, 48 h

Compound	TGI
N=C(N)c1ccc(CS(=O)(=O)F)cc1	> 100 µM
N#CC1=C(c2ccccc2)NN(Cc2ccccc2)C(c2ccc(Cl)cc2)CC1=O (centres undefined)	75.9 µM
COc1ccc(OC)c2sc(N3C(=O)/C(=C/c4ccc(SC)cc4)N=C3c3ccccc3)nc12	87.6 µM
CSc1n[nH]c2c1c(C)nn2-c1ccccc1	> 100 µM
O=C1CCN=C(NC(=O)C(F)(F)F)N1CCc1c[nH]c2ccccc12	> 100 µM
COc1ccc(/C=C(/C(=O)N2CCN(c3ccc(C)cc3)CC2)c2cc(OC)c(OC)c(OC)c2)cc1N	> 100 µM
COc1c(N2CCCCC2)c2c(=O)c3ccccc3oc2c2cc(C)oc12	> 100 µM
CN(C(=N)c1ccccc1)c1ccccc1	> 100 µM
O=S1(=O)OCc2ccccc21	> 100 µM
c1cc2c(cc1NC1=NCCO1)CCCC2	71.2 µM
Cc1ccc2c(=O)cc(-c3cc4ccccc4s3)[nH]c2n1	> 100 µM
CCCCCCN(CCCCCC)C1=CC(=O)C(=O)c2ccccc21	29.2 µM
Cc1ccc(C(=O)Nc2ccc(CN3CCN(C)CC3)c(C(F)(F)F)c2)cc1C#Cc1cnc(N)c2ccc(C#N)cc12	11.8 µM
CSC1=C(C(=O)N(COCC[Si](C)(C)C)c2ccccc2Br)CCC(C(C)(C)C)C1 (centres undefined)	> 100 µM
C[C@@]1([C@H](OC(=O)c2cccc3ccccc23)C(N)=O)CO1	> 76.6 µM
CC(=O)NC1C(O)C(O)C(CO)OC1n1nc(SCc2ccccc2)c(=O)[nH]c1=O (centres undefined)	> 100 µM
Cc1nc2ccccc2c(=O)n1Nc1ccc(C(=O)O)cc1	> 100 µM
Cc1cc(Cl)ccc1NC(=O)C1C(=O)C(=O)N(c2ccc(Cl)cc2C)C1=O (centres undefined)	> 100 µM
COc1cc(/C=C/C(=O)c2ccc(F)cc2)ccc1OCCCCOc1cc2c(cc1OC)C(=O)N1CCCC1C=N2 (centres undefined)	> 23.9 µM
Cc1cc(C)nc(NS(=O)(=O)c2ccc(Nc3nc4nc(NCc5ccccc5)nc(-c5ccc(O)cc5)c4c(=O)[nH]3)cc2)n1	> 100 µM
COc1cccc(-c2cc(C(=O)Nc3ccc(Cl)cc3)nc(N)n2)c1	> 100 µM
CC(=O)N(CN1C(=O)CCC1C(=O)O)c1ccc(C)cc1 (centres undefined)	> 100 µM
O=c1[nH]ccc2nc(N3CCC(O)CC3)nc(Nc3ccc(N4CCOCC4)cc3)c12	> 100 µM
CC1=CC[C@@H]2[C@@H](CC[C@@]2(C)O)C(C)(C)[C@H]1CC[C@@H]1[C@@]2(C)CC[C@@H](O)C(C)(C)O[C@@H]2CC[C@]1(C)O	> 100 µM
CC(=O)CC(=O)ON(C)C(C)=O	89.1 µM
O=C(CC(C(=O)c1cccs1)c1ccsc1)c1ccc(Cl)cc1 (centres undefined)	> 100 µM
Cc1ccc(N/N=C/C2=CC(C)(C)C(C#N)(C#N)C(O)=C2C#N)cc1	> 100 µM
Nc1nc(=O)c2[nH]cnc2n1O	> 100 µM
Cc1cc(N2CCCCC2)nc(NCc2cc(Nc3ccnc4cc(Cl)ccc34)ccc2F)n1	2.95 µM
